biological target: recombinant human ghrelin receptor (HEK293/GRLN) (Homo sapiens, UniProt Q92847); construct: expressed in transfected cells; experiment: Ghrelin inverse agonist potency (EC50) with IP-1 (IP-One HTRF) assay; format: cell-based; conditions: inverse agonist potency, IP-1 assay; read-out: EC50 (Activity)
Sequence (Q92847 whole entry): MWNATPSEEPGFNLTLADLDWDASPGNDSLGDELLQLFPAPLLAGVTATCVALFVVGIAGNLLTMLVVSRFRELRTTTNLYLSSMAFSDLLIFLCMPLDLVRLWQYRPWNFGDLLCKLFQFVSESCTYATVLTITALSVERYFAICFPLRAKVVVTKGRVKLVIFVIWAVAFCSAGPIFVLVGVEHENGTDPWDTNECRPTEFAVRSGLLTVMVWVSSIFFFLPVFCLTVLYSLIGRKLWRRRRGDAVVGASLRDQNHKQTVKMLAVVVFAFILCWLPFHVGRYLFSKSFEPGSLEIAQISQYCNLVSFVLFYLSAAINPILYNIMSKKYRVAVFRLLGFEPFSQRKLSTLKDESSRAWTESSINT
pEC50: recorded values
Schema: pEC50 number; meaning minus log10 of the concentration expressed in molar units.

Previously resolved entries follow.
- compound: "C[C@H](NC(=O)Nc1ccc(S(=O)(=O)Nc2ccc(CO)cc2)cc1)c1cccc(Cl)c1Cl"
  pEC50: 7.24
- compound: "C[C@H](NC(=O)Nc1ccc(S(=O)(=O)Cc2ccc3c(c2)CNC3)cc1)c1cccc(Cl)c1Cl.Cl"
  pEC50: 8.59
- compound: "O=C(NCc1cccc(Cl)c1Cl)Nc1ccc(S(=O)(=O)Cc2ccc3c(c2)CNCC3)cc1"
  pEC50: 6.84
- compound: "O=C(NC(=O)c1cc(N2CCOCC2)ccc1Cl)Nc1ccc(S(=O)(=O)Cc2ccc3c(c2)CNC3)cc1"
  pEC50: 5.79
- compound: "COc1ccc(CS(=O)(=O)c2ccc(NC(=O)N[C@@H](C)c3cccc(Cl)c3Cl)cc2)cc1"
  pEC50: 5.93
- compound: "C[C@H](NC(=O)Nc1ccc(S(=O)(=O)Cc2ccc(COS(=O)(=O)O)cc2)cc1)c1cccc(Cl)c1Cl"
  pEC50: 6.02
- compound: "C[C@H](NC(=O)Nc1ccc(S(=O)(=O)Cc2ccc(O)cc2)cc1)c1cccc(Cl)c1Cl"
  pEC50: 5.94
- compound: "C[C@H](NC(=O)Nc1ccc(S(=O)(=O)Nc2ccnc(N)n2)cc1)c1cccc(Cl)c1Cl"
  pEC50: 7.03

GET /values?item= C[C@H](NC(=O)Nc1ccc(S(=O)(=O)Nc2ccc3c(c2)CNCC3)cc1)c1cccc(Cl)c1Cl &system= recombinant human ghrelin receptor (HEK293/GRLN) (Homo sapiens, UniProt Q92847) returns pEC50: 7.53
